- Measured On: Melanocortin receptor 3 (Homo sapiens)
- Sequence (P41968 whole entry): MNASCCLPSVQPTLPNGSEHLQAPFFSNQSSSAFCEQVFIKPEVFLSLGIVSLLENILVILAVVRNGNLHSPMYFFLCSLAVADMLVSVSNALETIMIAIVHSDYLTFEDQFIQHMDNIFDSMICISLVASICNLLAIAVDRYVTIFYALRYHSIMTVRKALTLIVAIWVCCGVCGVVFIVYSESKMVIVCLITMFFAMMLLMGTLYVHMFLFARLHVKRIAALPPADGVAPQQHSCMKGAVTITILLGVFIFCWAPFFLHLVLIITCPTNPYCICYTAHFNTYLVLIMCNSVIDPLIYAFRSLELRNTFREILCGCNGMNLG
- Assay Method Text: Displacement of [125I]NDP-MSH from human melanocortin receptor-3 expressed in 293 HEK cells
pIC50: −log10 of the molar value.

{"Compound": "CCCCN(CC(=O)NCC(=O)N(CCCCN)CC(=O)N[C@H](Cc1ccccc1)C(=O)N(CCCN=C(N)N)CC(=O)N(CCc1c[nH]c2ccccc12)CC(=O)NCC(N)=O)C(C)=O", "pIC50": 5.40}
{"Compound": "CCCCN(CC(=O)NCC(=O)N[C@@H](CCCCN)C(=O)N[C@H](Cc1ccccc1)C(=O)N(CCCN=C(N)N)CC(=O)N(CC(=O)NCC(N)=O)Cc1c[nH]c2ccccc12)C(C)=O", "pIC50": 5.10}
{"Compound": "CCCC[C@H](NC(C)=O)C(=O)NCC(=O)N[C@@H](CCCCN)C(=O)N[C@H](Cc1ccccc1)C(=O)N[C@@H](CCCN=C(N)N)C(=O)N(CCc1c[nH]c2ccccc12)CC(=O)NCC(N)=O", "pIC50": 5.10}
{"Compound": "CCCC[C@H](NC(C)=O)C(=O)NCC(=O)N(CCCCN)CC(=O)NC(Cc1ccccc1)C(=O)N(CCCNC(=N)N)CC(=O)N(CCc1c[nH]c2ccccc12)CC(=O)NCC(N)=O (single isomer, unassigned)", "pIC50": 5.40}
{"Compound": "CCCC[C@H](NC(C)=O)C(=O)NCC(=O)N[C@@H](CCCCN)C(=O)N[C@H](Cc1ccccc1)C(=O)N(CCCNC(=N)N)CC(=O)N(CC(=O)NCC(N)=O)Cc1c[nH]c2ccccc12", "pIC50": 5.30}
{"Compound": "CCCC[C@H](NC(C)=O)C(=O)NCC(=O)N[C@@H](CCCCN)C(=O)N[C@H](Cc1ccccc1)C(=O)N(CCCNC(=N)N)CC(=O)N[C@@H](Cc1c[nH]c2ccccc12)C(=O)NCC(N)=O", "pIC50": 5.30}
{"Compound": "CCCC[C@H](NC(C)=O)C(=O)NCC(=O)N[C@@H](CCCCN)C(=O)N[C@H](Cc1ccccc1)C(=O)N[C@@H](CCCN=C(N)N)C(=O)N(CC(=O)NCC(N)=O)Cc1c[nH]c2ccccc12", "pIC50": 6.30}
{"Compound": "CCCCN(CC(=O)NCC(=O)N[C@@H](CCCCN)C(=O)N[C@H](Cc1ccccc1)C(=O)N[C@@H](CCCN=C(N)N)C(=O)N[C@@H](Cc1c[nH]c2ccccc12)C(=O)NCC(N)=O)C(C)=O", "pIC50": 6.90}
{"Compound": "CCCCN(CC(=O)NCC(=O)N(CCCCN)CC(=O)N[C@H](Cc1ccccc1)C(=O)N[C@@H](CCCNC(=N)N)C(=O)N[C@@H](Cc1c[nH]c2ccccc12)C(=O)NCC(N)=O)C(C)=O", "pIC50": 5.90}
{"Compound": "CCCCN(CC(=O)NCC(=O)N[C@@H](CCCCN)C(=O)N[C@H](Cc1ccccc1)C(=O)N(CCCN=C(N)N)CC(=O)N(CCc1c[nH]c2ccccc12)CC(=O)NCC(N)=O)C(C)=O", "pIC50": 5.50}
{"Compound": "CCCC[C@H](NC(C)=O)C(=O)NCC(=O)N(CCCCN)CC(=O)N[C@H](Cc1ccccc1)C(=O)N[C@@H](CCCN=C(N)N)C(=O)N(CC(=O)NCC(N)=O)Cc1c[nH]c2ccccc12", "pIC50": 6.10}
{"Compound": "CCCC[C@H](NC(C)=O)C(=O)NCC(=O)N[C@@H](CCCCN)C(=O)N[C@H](Cc1ccccc1)C(=O)N[C@@H](CCCNC(=N)N)C(=O)N[C@@H](Cc1c[nH]c2ccccc12)C(=O)NCC(N)=O", "pIC50": 6.70}
{"Compound": "CCCCN(CC(=O)NCC(=O)N[C@@H](CCCCN)C(=O)N[C@H](Cc1ccccc1)C(=O)N[C@@H](CCCNC(=N)N)C(=O)N(CC(=O)NCC(N)=O)Cc1c[nH]c2ccccc12)C(C)=O", "pIC50": 5.90}
{"Compound": "CCCCN(CC(=O)NCC(=O)N(CCCCN)CC(=O)N[C@H](Cc1ccccc1)C(=O)N[C@@H](CCCNC(=N)N)C(=O)N(CC(=O)NCC(N)=O)Cc1c[nH]c2ccccc12)C(C)=O", "pIC50": 5.70}
